In what follows, each item is paired with its IC50 for Cyclin-dependent kinase 2 (Homo sapiens, UniProt P24941).
Write the answer as a number in µM, unit excluded.

The value of IC50 recorded for COc1cccc(NC(=S)N2CCN(c3nnc(Cc4ccccc4)c4ccccc34)CC2)c1 when tested on Cyclin-dependent kinase 2 (Homo sapiens, UniProt P24941) reads 0.426

Item COc1ccc(Cc2nnc(N3CCN(C(=S)Nc4ccccc4)CC3)c3ccccc23)cc1 ; assay system Cyclin-dependent kinase 2 (Homo sapiens, UniProt P24941); IC50 reported as 0.524

// IC50 (Cyclin-dependent kinase 2 (Homo sapiens, UniProt P24941)) for O=C(c1ccccc1)N1CCN(c2nnc(Cc3ccccc3)c3ccccc23)CC1 = 0.115

Item COc1ccc(Cc2nnc(N3CCN(C(=O)c4ccccc4)CC3)c3ccccc23)cc1 ; assay system Cyclin-dependent kinase 2 (Homo sapiens, UniProt P24941); IC50 reported as 0.455

Considering COc1ccc(Cc2nnc(N3CCN(C(=S)Nc4cccc(Cl)c4)CC3)c3ccccc23)cc1 , its IC50 with Cyclin-dependent kinase 2 (Homo sapiens, UniProt P24941) was recorded as 0.189

---

Task for the reader: assign each of the following compounds its reported pIC50.
Note on units: pIC50 is unitless, being -log10 of a concentration expressed in mol/L.

Fill in: Tyrosine-protein kinase receptor UFO (Homo sapiens) pIC50 for S=C(Nc1ccccc1)N1CCN(c2nnc(Cc3ccccc3)c3ccccc23)CC1 = 5.90

Reading of pIC50 for COc1ccc(Cc2nnc(N3CCN(C(=S)Nc4ccccc4)CC3)c3ccccc23)cc1 with Tyrosine-protein kinase receptor UFO (Homo sapiens): 5.93

Form field pIC50 for item COc1ccc(Cc2nnc(N3CCN(C(=S)Nc4cccc(Cl)c4)CC3)c3ccccc23)cc1 on Tyrosine-protein kinase receptor UFO (Homo sapiens): 5.25

# value of pIC50, Tyrosine-protein kinase receptor UFO (Homo sapiens), item COc1ccc(Cc2nnc(N3CCN(C(=S)Nc4ccc(Cl)cc4)CC3)c3ccccc23)cc1 = 5.66

Case COc1ccc(Cc2nnc(N3CCN(C(=S)Nc4ccc(OC)cc4)CC3)c3ccccc23)cc1 , Tyrosine-protein kinase receptor UFO (Homo sapiens), pIC50 recorded as 5.07

Let me check: COc1ccc(C(=O)N2CCN(c3nnc(Cc4ccccc4)c4ccccc34)CC2)cc1 , system Tyrosine-protein kinase receptor UFO (Homo sapiens), measured pIC50 is 5.82

Fill in: Tyrosine-protein kinase receptor UFO (Homo sapiens) pIC50 for O=C(Nc1ccccc1)N1CCN(c2nnc(Cc3ccccc3)c3ccccc23)CC1 = 5.12

Tyrosine-protein kinase receptor UFO (Homo sapiens) pIC50 of O=C(c1ccc(Cl)cc1)N1CCN(c2nnc(Cc3ccccc3)c3ccccc23)CC1 is 5.46

Per the reported Tyrosine-protein kinase receptor UFO (Homo sapiens) data, COc1cccc(NC(=S)N2CCN(c3nnc(Cc4ccccc4)c4ccccc34)CC2)c1 has pIC50 of 5.10

---

Tested on: KG-1
test.name: Antiproliferative activity against human KG-1 cells assessed as growth inhibition incubated at 10 uM for 24 hrs by MTT assay relative to control
Type: functional
condition: read-out: GI
Give inhibition of growth at 10 µM for every item shown.
# unit: % | format: bare number

For this molecule ( O=C(c1ccccc1)N1CCN(c2nnc(Cc3ccccc3)c3ccccc23)CC1 ), measured inhibition of growth at 10 µM is 73.6

Documented inhibition of growth at 10 µM of COc1ccc(Cc2nnc(N3CCN(C(=O)Nc4ccc(Cl)c(C(F)(F)F)c4)CC3)c3ccccc23)cc1 : 72.3

Briefly, inhibition of growth at 10 µM measured for O=C(Nc1ccc(Cl)c(C(F)(F)F)c1)N1CCN(c2nnc(Cc3ccccc3)c3ccccc23)CC1 : 1.35

Memo: O=C(Nc1ccc(Cl)cc1)N1CCN(c2nnc(Cc3ccccc3)c3ccccc23)CC1 , reported inhibition of growth at 10 µM: 57.9

molecule COc1ccc(Cc2nnc(N3CCN(C(=O)Nc4ccc(OC)cc4)CC3)c3ccccc23)cc1 , inhibition of growth at 10 µM observed: 0.31

Form: molecule = S=C(Nc1ccc(Cl)cc1)N1CCN(c2nnc(Cc3ccccc3)c3ccccc23)CC1 ; inhibition of growth at 10 µM = 8.92
